test: Cmax in ICR mouse at 20 mg/kg, po measured upto 24 hrs by LC-MS/MS analysis; type: ADME, organism-based; design: time < 24 hrs, dose 20 mg/kg, route po; conditions: in vivo
Result Type: Cmax (ng/mL)
Give the value in ng/mL but do not write ng/mL after it.

Identify Cmax associated with the molecule O=S(=O)(c1ccccc1)N1CCc2cc(C3CC3NCC3CCNCC3)ccc21 (stereo unspecified)
85.7

---

Biological target: Amine oxidase [flavin-containing] A (Homo sapiens, UniProt P21397)
Sequence (P21397 whole entry): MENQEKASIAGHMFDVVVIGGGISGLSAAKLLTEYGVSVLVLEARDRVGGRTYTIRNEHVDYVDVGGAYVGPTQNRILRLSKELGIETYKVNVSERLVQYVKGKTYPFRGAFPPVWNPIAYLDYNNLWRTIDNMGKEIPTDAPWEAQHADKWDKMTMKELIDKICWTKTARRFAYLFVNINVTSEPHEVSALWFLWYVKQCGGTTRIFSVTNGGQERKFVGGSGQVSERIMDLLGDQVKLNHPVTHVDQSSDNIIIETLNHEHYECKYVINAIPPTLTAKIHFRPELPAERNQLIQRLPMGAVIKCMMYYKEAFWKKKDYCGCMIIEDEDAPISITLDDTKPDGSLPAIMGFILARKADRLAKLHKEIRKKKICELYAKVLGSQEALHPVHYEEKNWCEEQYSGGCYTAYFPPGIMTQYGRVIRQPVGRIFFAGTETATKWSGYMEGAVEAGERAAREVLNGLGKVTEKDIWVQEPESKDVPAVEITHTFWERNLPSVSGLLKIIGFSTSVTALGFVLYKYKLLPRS
Assay: biochemical
Description: Inhibition of human recombinant MAO-A expressed in baculovirus infected BTI insect cells using luminogenic MAO substrate incubated for 1 hr by luciferin-based luminescence assay
Recorded IC50 by entry

Use these answered entries as a reference point.
>  <Compound>
N[C@H]1CC[C@H](CNC2CC2c2ccc3c(c2)CCN3S(=O)(=O)c2ccccc2)CC1 (stereo partly drawn)

>  <IC50>
96.3 µM

$$$$
>  <Compound>
CC1(CNC2CC2c2ccc3c(c2)CCN3S(=O)(=O)c2ccccc2)CCNCC1 (trans isomer)

>  <IC50>
100 µM

$$$$
>  <Compound>
O=C(c1ccccc1)N1CCc2cc(C3CC3NCC3CCNCC3)ccc21 (trans isomer)

>  <IC50>
> 100 µM

$$$$
>  <Compound>
CC(C)(C)C(=O)N1CCc2cc(C3CC3NCC3CCNCC3)ccc21 (trans isomer)

>  <IC50>
> 100 µM

$$$$
>  <Compound>
O=S(=O)(c1ccccc1)N1CCc2cc(C3CC3NC3CC4(CCNCC4)C3)ccc21 (trans isomer)

>  <IC50>
> 100 µM

$$$$
>  <Compound>
O=S(=O)(c1ccccc1)N1CCc2cc(C3CC3NCCC3CCNCC3)ccc21 (trans isomer)

>  <IC50>
> 100 µM

$$$$
>  <Compound>
O=S(=O)(N1CCc2cc(C3CC3NCC3CCNCC3)ccc21)C(F)(F)F (trans isomer)

>  <IC50>
8640 µM

$$$$
>  <Compound>
O=S(=O)(c1ccc(-c2ccccc2)cc1)N1CCc2cc(C3CC3NCC3CCNCC3)ccc21 (trans isomer)

>  <IC50>
> 100 µM

$$$$

Identify IC50 associated with the compound CCCCC(=O)N1CCc2cc(C3CC3NCC3CCNCC3)ccc21 (stereo not drawn)
> 100 µM

Identify IC50 associated with the compound O=S(=O)(c1ccccc1)N1CCc2cc(C3CC3NCC3CCNCC3)ccc21 (stereo not drawn)
> 100 µM

---

assay: AUC (0 to infinity) in ICR mouse at 20 mg/kg, po measured upto 24 hrs by LC-MS/MS analysis; type: ADME, organism-based; set-up: dose 20 mg/kg, time < 24 hrs, route po; conditions: in vivo
Result Type: AUC (ng·h/mL)
Give the value in ng·h/mL but do not write ng·h/mL after it.

Identify AUC associated with the molecule O=S(=O)(c1ccccc1)N1CCc2cc(C3CC3NCC3CCNCC3)ccc21 (stereo unspecified)
619
